Protocol Text: in vitro
Test Context: PAMPA, PAMPA-BBB Pe, Table S2: compounds exhibiting moderate to high PAMPA-BBB permeability
Structures can show the parent of a compound that is named as a salt.
Answer each item with its documented Papp.
Numbers only; they are read as nm/s.

QUERY: Give a short answer stating reported Papp for COC(=O)c1ccc(OC)cc1 [METHYL ANISATE] .
RESULT: 1030

QUERY: For the compound "Cc1ccnc(N)c1" , report Papp.
RESULT: 130

QUERY: // fetch Papp given entry "Cn1cnc2c(NCc3ccccc3)nc(NCCO)nc21"
RESULT: 100

QUERY: # return recorded Papp for entry "CC[C@@]1(O)C[C@H](O[C@H]2C[C@H](N(C)C)[C@H](O)[C@H](C)O2)c2c(cc3c(c2O)C(=O)c2c(O)cccc2C3=O)[C@H]1C(=O)OC"
RESULT: 1160

QUERY: Return the recorded Papp value; entry: CCN1C[C@@]2(COC)CCC(OC)[C@@]34[C@@H]1C([C@H](OC)[C@H]23)[C@@]1(OC(C)=O)C[C@H](OC)[C@@]2(O)C[C@H]4C1[C@H]2OC(=O)c1ccc(OC)cc1 (some centres unmarked) [BULLE[…]]
RESULT: 170

QUERY: Using the record for CN1[C@@H](CC(=O)c2ccccc2)CCC[C@H]1C[C@H](O)c1ccccc1 [Lobeline hydrochloride] , state its measured Papp.
RESULT: 320

QUERY: Please report the measured Papp for "O=Cc1ccco1"
RESULT: 460

QUERY: Kindly indicate its recorded Papp. Item: COc1ccc(Cc2nccc3cc(OC)c(OC)cc23)cc1OC [PAPAVERINE HYDROCHLORIDE]
RESULT: 1650
